B1: TPR 5TU (parent)
chain: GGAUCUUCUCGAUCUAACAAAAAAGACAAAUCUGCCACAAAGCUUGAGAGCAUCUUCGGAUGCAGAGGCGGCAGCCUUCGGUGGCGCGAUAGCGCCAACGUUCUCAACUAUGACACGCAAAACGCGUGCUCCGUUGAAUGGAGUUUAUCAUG

# Variants of: B1
# experiment: polymerase ribozyme fitness, log enrichment relative to wild type (log ratio); higher = more active; in vitro selection for triplet polymerase activity
Fewer inactive variants are shown than the library holds.
Label Criterion met when polymerase ribozyme fitness (log ratio) >= -2; otherwise Criterion not met.

mutation | class.name
U55A A89U U102G | Criterion not met
A49G C76U A89C C96A | Criterion not met
A30G C57U C63U G68C C95U A120C C125G | Criterion not met
A26U A60U U111G G141U | Criterion not met
U109G C116G | Criterion met
A24U U55G | Criterion met
C54U C57A | Criterion met
C96A G126C | Criterion met
C54U G58A G92A U145A | Criterion not met
U7G A40G A52C G65U A73G U82A C93G U134A U148G | Criterion not met
G94C U101C | Criterion met
U7G C63G C76G C93G A97U C99G A106U | Criterion not met
A64G A91G C123G | Criterion not met
A19G A73U G94C | Criterion not met
U56A C57A G84A | Criterion met
U7C A23G U82G G83A U146G A150G G152C | Criterion not met
C87U A98G | Criterion met
U6C C63U A138G | Criterion not met
G58C U61A G74U U77G C79U G80C C87A | Criterion not met
C54A C118A | Criterion met
C69U C85A | Criterion not met
G88C C93G U102C G124A | Criterion not met
A73G C79U C96U A142U | Criterion not met
C5G A20G C27A C72U A120U | Criterion not met
A12C U101G A137G | Criterion met
A12G G59A G94C | Criterion met
A20C G92A U101G G124A C129U | Criterion not met
C5G A17G A26C A40U U82G C87U C118G C129A C131A G141C | Criterion not met
A19U A26U G46A C87A A91U G94A U127C G143C | Criterion not met
G70U G80U A119G | Criterion not met
A16C G83A G94A | Criterion not met
A41U C54A G59A C85G | Criterion not met
G59U A91U | Criterion not met
C54G A97U A106C | Criterion not met
U56A U61C | Criterion not met
U61A C85U A97C A120G | Criterion not met
A12G A29U U31A G67U C72A G92U A137G | Criterion not met
A106G C116U U148C | Criterion met
C27G C38A C54U G92U U134G | Criterion not met
A12G U13C C96A | Criterion met
A30C U31C C32A G46C G50C G58U G88C U104C A122G | Criterion not met
C51G A52G U102A | Criterion not met
C32G A37G G83U C87G A89G G133C | Criterion not met
C10A C95U | Criterion not met
U4A U45A C57U A91C | Criterion not met
